# test.protocol: molar heat capacity at constant pressure
# assay.conditions: 60 K; 101.33 kPa; Crystal
observable: molar heat capacity at constant pressure (J/K/mol)

Worked examples, 6 compounds total:
compound	result.units	molar heat capacity at constant pressure
CCCCCCCC(=O)OC [methyl octanoate]	J/K/mol	79.75
CCCCCCCCCCCCCCCCC(=O)OC [methyl heptadecanoate]	J/K/mol	131.71
CCCCCCCCCCCCCCC(=O)OC [methyl pentadecanoate]	J/K/mol	120.37
CCCCCCCCCCCCCCCCCCCC(=O)OC [methyl eicosanoate]	J/K/mol	149.98
CCCCCCCCCCCCCCCCCC(=O)OC [methyl octadecanoate]	J/K/mol	137.8
CCCCCCCCC(=O)OC [methyl nonanoate]	J/K/mol	86.46

1: CCCCCCCCCCCCCCCCCCC(=O)OC [methyl nonadecanoate]
2: CCCCCCCCCCC(=O)OC [methyl undecanoate]
Which gives the smaller molar heat capacity at constant pressure number: 1 or 2 ? I would appreciate it if you answered with the label of your choice.
2
(2: 97.96 J/K/mol, 1: 143.77 J/K/mol)

###

# test.protocol: molar heat capacity at constant pressure
# assay.conditions: 260 K; 101.33 kPa; Crystal
observable: molar heat capacity at constant pressure (J/K/mol)

molecule	molar heat capacity at constant pressure, J/K/mol
CCCCCCCCCCCCCC(=O)OC [methyl tetradecanoate]	368.64
CCCCCCCCCCCCCCCCCCCC(=O)OC [methyl eicosanoate]	480.5
CCCCCCCCCCCCC(=O)OC [methyl tridecanoate]	350.98
CCCCCCCCCCCCCCCCCCC(=O)OC [methyl nonadecanoate]	469.65
CCCCCCCCCCCCCCC(=O)OC [methyl pentadecanoate]	387.35
CCCCCCCCCCCC(=O)OC [methyl dodecanoate]	335.52
CCCCCCCCCCCCCCCCCC(=O)OC [methyl octadecanoate]	446.92
CCCCCCCCCCCCCCCCC(=O)OC [methyl heptadecanoate]	438.62
CCCCCCCCCCCCCCCC(=O)OC [methyl hexadecanoate]	405.39

###

# test.protocol: molar heat capacity at constant pressure
# assay.conditions: 20 K; 101.33 kPa; Crystal
observable: molar heat capacity at constant pressure (J/K/mol)

Worked examples, 10 compounds total:
compound	observable	reported
CCCCCCCCCCCCC(=O)OC [methyl tridecanoate]	molar heat capacity at constant pressure	19.77
CCCCCCCCCCCCCC(=O)OC [methyl tetradecanoate]	molar heat capacity at constant pressure	21.34
CCCCCCCCCCCCCCCCCCC(=O)OC [methyl nonadecanoate]	molar heat capacity at constant pressure	26.27
CCCCCCCCCCCCCCCCCC(=O)OC [methyl octadecanoate]	molar heat capacity at constant pressure	26.2
CCCCCCCCC(=O)OC [methyl nonanoate]	molar heat capacity at constant pressure	17.17
CCCCCCCCCCCCCCCCC(=O)OC [methyl heptadecanoate]	molar heat capacity at constant pressure	23.27
CCCCCCCCCCCC(=O)OC [methyl dodecanoate]	molar heat capacity at constant pressure	19.62
CCCCCCCCCCCCCCC(=O)OC [methyl pentadecanoate]	molar heat capacity at constant pressure	21.13
CCCCCCCCCCC(=O)OC [methyl undecanoate]	molar heat capacity at constant pressure	18.49
CCCCCCCC(=O)OC [methyl octanoate]	molar heat capacity at constant pressure	18.19

A: CCCCCCCCCCCCCCCCCCCC(=O)OC [methyl eicosanoate]
B: CCCCCCCCCC(=O)OC [methyl decanoate]
Which gives the smaller molar heat capacity at constant pressure number: A or B ? I would appreciate it if you answered with the label of your choice.
B

###

# test.protocol: molar heat capacity at constant pressure
# assay.conditions: 250 K; 101.33 kPa; Crystal
observable: molar heat capacity at constant pressure (J/K/mol)

compound	reported
CCCCCCCCCC(=O)OC [methyl decanoate]	300.63
CCCCCCCCCCCCCCCC(=O)OC [methyl hexadecanoate]	388.24
CCCCCCCCCCCC(=O)OC [methyl dodecanoate]	315.69
CCCCCCCCCCC(=O)OC [methyl undecanoate]	320.5
CCCCCCCCCCCCCC(=O)OC [methyl tetradecanoate]	349.48
CCCCCCCCCCCCCCC(=O)OC [methyl pentadecanoate]	371.28
CCCCCCCCCCCCC(=O)OC [methyl tridecanoate]	336.07
CCCCCCCCCCCCCCCCCCCC(=O)OC [methyl eicosanoate]	461.58
CCCCCCCCCCCCCCCCCC(=O)OC [methyl octadecanoate]	428.51
CCCCCCCCCCCCCCCCCCC(=O)OC [methyl nonadecanoate]	450.65
CCCCCCCCCCCCCCCCC(=O)OC [methyl heptadecanoate]	418.37

###

# test.protocol: molar heat capacity at constant pressure
# assay.conditions: 150 K; 101.33 kPa; Crystal
observable: molar heat capacity at constant pressure (J/K/mol)

Worked examples, 3 compounds total:
compound	result.units	reported
CCCCCCCCCCCCCCCCCCCC(=O)OC [methyl eicosanoate]	J/K/mol	313.11
CCCCCCCCCCCCCCC(=O)OC [methyl pentadecanoate]	J/K/mol	249.97
CCCCCCCCCCCCCCCC(=O)OC [methyl hexadecanoate]	J/K/mol	261.54

1: CCCCCCCC(=O)OC [methyl octanoate]
2: CCCCCCCCCCCCCCCCC(=O)OC [methyl heptadecanoate]
# argmax over molar heat capacity at constant pressure for candidates 1 and 2 I would appreciate it if you answered with the label of your choice.
2
(2: 275.72 J/K/mol, 1: 160.31 J/K/mol)

A: CCCCCCCCCC(=O)OC [methyl decanoate]
B: CCCCCCCCCCCCCCCCCCC(=O)OC [methyl nonadecanoate]
# argmax over molar heat capacity at constant pressure for candidates A and B I would appreciate it if you answered with the label of your choice.
B

###

# test.protocol: molar heat capacity at constant pressure
# assay.conditions: 310 K; 101.33 kPa; Liquid
observable: molar heat capacity at constant pressure (J/K/mol)

compound	observable	reported
CCCCCCCC(=O)OC [methyl octanoate]	molar heat capacity at constant pressure	320.13
CCCCCCCCCCCCCCC(=O)OC [methyl pentadecanoate]	molar heat capacity at constant pressure	534.12
CCCCCCCCCC(=O)OC [methyl decanoate]	molar heat capacity at constant pressure	380.31
CCCCCCCCCCCCCC(=O)OC [methyl tetradecanoate]	molar heat capacity at constant pressure	504.66
CCCCCCCCCCCCCCCC(=O)OC [methyl hexadecanoate]	molar heat capacity at constant pressure	570.55
CCCCCCCCCCC(=O)OC [methyl undecanoate]	molar heat capacity at constant pressure	411.22
CCCCCCCCCCCCCCCCC(=O)OC [methyl heptadecanoate]	molar heat capacity at constant pressure	599.17
CCCCCCCCCCCCC(=O)OC [methyl tridecanoate]	molar heat capacity at constant pressure	473.89
CCCCCCCCC(=O)OC [methyl nonanoate]	molar heat capacity at constant pressure	350.79
CCCCCCCCCCCC(=O)OC [methyl dodecanoate]	molar heat capacity at constant pressure	443.32

###

# test.protocol: molar heat capacity at constant pressure
# assay.conditions: 100 K; 101.33 kPa; Crystal
observable: molar heat capacity at constant pressure (J/K/mol)

Worked examples, 5 molecules total:
molecule	reported
CCCCCCCCCC(=O)OC [methyl decanoate]	141.62
CCCCCCCCC(=O)OC [methyl nonanoate]	134.32
CCCCCCCCCCCCCCCC(=O)OC [methyl hexadecanoate]	198.32
CCCCCCCCCCCCCCCCCCC(=O)OC [methyl nonadecanoate]	228.66
CCCCCCCCCCCCC(=O)OC [methyl tridecanoate]	171.63

a: CCCCCCCCCCCC(=O)OC [methyl dodecanoate]
b: CCCCCCCCCCCCCCCCCCCC(=O)OC [methyl eicosanoate]
Which gives the smaller molar heat capacity at constant pressure number: a or b ? I would appreciate it if you answered with the label of your choice.
a
(a: 160.46 J/K/mol, b: 235.76 J/K/mol)

###

# test.protocol: molar heat capacity at constant pressure
# assay.conditions: 300 K; 101.33 kPa; Liquid
observable: molar heat capacity at constant pressure (J/K/mol)

Worked examples, 5 molecules total:
molecule	result.units	molar heat capacity at constant pressure
CCCCCCCCCCCCCCC(=O)OC [methyl pentadecanoate]	J/K/mol	524.33
CCCCCCCCCCCCCC(=O)OC [methyl tetradecanoate]	J/K/mol	500.03
CCCCCCCCCC(=O)OC [methyl decanoate]	J/K/mol	376.14
CCCCCCCCCCC(=O)OC [methyl undecanoate]	J/K/mol	406.99
CCCCCCCCCCCC(=O)OC [methyl dodecanoate]	J/K/mol	438.82

a: CCCCCCCC(=O)OC [methyl octanoate]
b: CCCCCCCCCCCCC(=O)OC [methyl tridecanoate]
Which gives the smaller molar heat capacity at constant pressure number: a or b ? I would appreciate it if you answered with the label of your choice.
a

###

# test.protocol: molar heat capacity at constant pressure
# assay.conditions: 280 K; 101.33 kPa; Liquid
observable: molar heat capacity at constant pressure (J/K/mol)

compound	result.units	reported
CCCCCCCCCC(=O)OC [methyl decanoate]	J/K/mol	368.72
CCCCCCCCCCC(=O)OC [methyl undecanoate]	J/K/mol	398.95
CCCCCCCCCCCC(=O)OC [methyl dodecanoate]	J/K/mol	428
CCCCCCCCC(=O)OC [methyl nonanoate]	J/K/mol	338.72
CCCCCCCC(=O)OC [methyl octanoate]	J/K/mol	308.83
